- Measured target: 5-lipoxygenase (Rattus norvegicus, UniProt P12527)
- Construct: subjected to supersonic treatment and the cells were disrupted; endogenous in cells
- Sequence (P12527 whole entry): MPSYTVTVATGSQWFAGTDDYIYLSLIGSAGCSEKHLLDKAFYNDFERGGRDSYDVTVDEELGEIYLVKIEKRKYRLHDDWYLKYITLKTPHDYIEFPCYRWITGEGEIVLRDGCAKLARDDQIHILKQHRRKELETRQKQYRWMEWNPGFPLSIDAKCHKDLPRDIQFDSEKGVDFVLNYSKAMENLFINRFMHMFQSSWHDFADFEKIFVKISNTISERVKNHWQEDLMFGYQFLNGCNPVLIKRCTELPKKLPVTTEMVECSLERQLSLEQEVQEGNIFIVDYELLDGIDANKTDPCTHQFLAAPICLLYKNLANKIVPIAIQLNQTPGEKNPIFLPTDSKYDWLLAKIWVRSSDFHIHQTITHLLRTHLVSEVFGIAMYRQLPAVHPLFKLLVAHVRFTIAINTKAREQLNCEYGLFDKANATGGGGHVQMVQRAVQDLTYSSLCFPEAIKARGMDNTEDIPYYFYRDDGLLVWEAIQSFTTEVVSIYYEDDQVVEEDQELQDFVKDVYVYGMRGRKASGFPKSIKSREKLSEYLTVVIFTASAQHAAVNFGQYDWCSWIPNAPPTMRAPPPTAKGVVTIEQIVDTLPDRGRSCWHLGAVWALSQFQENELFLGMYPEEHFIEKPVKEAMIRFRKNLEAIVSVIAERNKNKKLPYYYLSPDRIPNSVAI
- Procedure details: 5-lipoxygenase inhibiting action (leucotriene production inhibiting action), RBL-1 cell homogenate
- Condition summary: arachidonic acid, 37° C., 5-HETE by HPLC
Recorded endpoint: IC50 (µM)

Cc1cc(OCCCCCCN2CCN(C(c3ccccc3)c3ccccc3)CC2)c(C)c(C)c1O [Compound V] :: 6.2
